Test system: Staphylococcus aureus
test: Antibacterial activity against Staphylococcus aureus ATCC65385 assessed as growth inhibition after 20 hrs by broth microdilution method
Type: functional
readout_label: MIC50

C[C@H]1[C@H](C)CC[C@]2(C(=O)O)CC[C@]3(C)C(=CC[C@@H]4[C@@]5(C)Cc6nnn(CCc7c[nH]c8ccccc78)c6C(C)(C)[C@@H]5CC[C@]43C)[C@H]12
132 µg/mL
C=C(C)[C@@H]1CC[C@]2(CO)CC[C@]3(C)[C@H](CC[C@@H]4[C@@]5(C)Cc6nnn(Cc7ccc8[nH]ccc8c7)c6C(C)(C)[C@@H]5CC[C@]43C)[C@@H]12
345 µg/mL
CC1(C)CC[C@]2(C(=O)O)CC[C@]3(C)C(=CC[C@@H]4[C@@]5(C)Cc6nnn(Cc7cccc8[nH]ccc78)c6C(C)(C)[C@@H]5CC[C@]43C)[C@@H]2C1
180 µg/mL

Turning now to a further compound:
-- ask I'd like to know its MIC50. The compound in question is "C[C@H]1[C@H](C)CC[C@]2(C(=O)O)CC[C@]3(C)C(=CC[C@@H]4[C@@]5(C)CC[C@H](O)C(C)(C)[C@@H]5CC[C@]43C)[C@H]12"
-- reply 1.56 µg/mL

###

Tested on: CAPAN-1
test: cells
Assay type: functional, cell-based
condition_info: Homo sapiens, CAPAN-1, 72 h
Description: Antiproliferative activity against human CAPAN-1 cells assessed as inhibition of cell viability measured after 72 hrs by colorimetric MTS viability assay
pIC50: −log10 of the molar value.
readout_label: pIC50

Worked examples, 3 compounds total:
C[C@H]1[C@H](C)CC[C@]2(C(=O)O)CC[C@]3(C)C(=CC[C@@H]4[C@@]5(C)Cc6nnn(CCc7c[nH]c8ccccc78)c6C(C)(C)[C@@H]5CC[C@]43C)[C@H]12
5.34
CC1(C)CC[C@]2(C(=O)O)CC[C@]3(C)C(=CC[C@@H]4[C@@]5(C)Cc6nnn(Cc7ccc8[nH]ccc8c7)c6C(C)(C)[C@@H]5CC[C@]43C)[C@@H]2C1
5.39
C[C@H]1[C@H](C)CC[C@]2(C(=O)O)CC[C@]3(C)C(=CC[C@@H]4[C@@]5(C)Cc6nnn(Cc7cccc8[nH]ccc78)c6C(C)(C)[C@@H]5CC[C@]43C)[C@H]12
5.44

[P] C[C@H]1[C@H](C)CC[C@]2(C(=O)O)CC[C@]3(C)C(=CC[C@@H]4[C@@]5(C)Cc6nnn(Cc7ccc8[nH]ccc8c7)c6C(C)(C)[C@@H]5CC[C@]43C)[C@H]12
[Q] CC1(C)CC[C@]2(C(=O)O)CC[C@]3(C)C(=CC[C@@H]4[C@@]5(C)CC[C@H](O)C(C)(C)[C@@H]5CC[C@]43C)[C@@H]2C1
[R] CC1(C)CC[C@]2(C(=O)O)CC[C@]3(C)C(=CC[C@@H]4[C@@]5(C)Cc6nnn(Cc7ccc(Cl)cc7)c6C(C)(C)[C@@H]5CC[C@]43C)[C@@H]2C1
[S] C[C@H]1[C@H](C)CC[C@]2(C(=O)O)CC[C@]3(C)C(=CC[C@@H]4[C@@]5(C)Cc6nnn(Cc7ccc8cc[nH]c8c7)c6C(C)(C)[C@@H]5CC[C@]43C)[C@H]12
[T] CC1(C)CC[C@]2(C(=O)O)CC[C@]3(C)C(=CC[C@@H]4[C@@]5(C)Cc6nnn(Cc7ccc8cc[nH]c8c7)c6C(C)(C)[C@@H]5CC[C@]43C)[C@@H]2C1
-- ask Hey, quick one: sort these by pIC50, largest value first please. Answer with the labels in sequence, matching the requested order.
-- reply S, P, T, R, Q
(S: 5.59, P: 5.35, T: 5.03, R: 4.59, Q: 4.30)

###

Test system: CAPAN-1
test: cells
Type: functional, cell-based
condition_info: Homo sapiens, CAPAN-1, 72 h
pIC50: −log10 of the molar value.
readout_label: pIC50

C=C(C)[C@@H]1CC[C@]2(CO)CC[C@]3(C)[C@H](CC[C@@H]4[C@@]5(C)Cc6nnn(CCc7c[nH]c8ccc(OC)cc78)c6C(C)(C)[C@@H]5CC[C@]43C)[C@@H]12
< 4.00
C=C(C)[C@@H]1CC[C@]2(CO)CC[C@]3(C)[C@H](CC[C@@H]4[C@@]5(C)Cc6nnn(CCc7c[nH]c8ccccc78)c6C(C)(C)[C@@H]5CC[C@]43C)[C@@H]12
< 4.00
CC1(C)CC[C@]2(C(=O)O)CC[C@]3(C)C(=CC[C@@H]4[C@@]5(C)Cc6nnn(CCc7c[nH]c8ccccc78)c6C(C)(C)[C@@H]5CC[C@]43C)[C@@H]2C1
5.02
C=C(C)[C@@H]1CC[C@]2(CO)CC[C@]3(C)[C@H](CC[C@@H]4[C@@]5(C)Cc6nnn(Cc7ccc8[nH]ccc8c7)c6C(C)(C)[C@@H]5CC[C@]43C)[C@@H]12
< 4.00

Turning now to a further compound:
-- ask Request - read-out pIC50 | tested on CAPAN-1 | compound "C=C(C)[C@@H]1CC[C@]2(CO)CC[C@]3(C)[C@H](CC[C@@H]4[C@@]5(C)CC[C@H](O)C(C)(C)[C@@H]5CC[C@]43C)[C@@H]12"
-- reply < 4.00

###

System: Staphylococcus aureus
test: Antibacterial activity against Staphylococcus aureus ATCC65385 assessed as growth inhibition after 20 hrs by broth microdilution method
Format: functional
readout_label: MIC50

Worked examples, 5 compounds total:
C=C(C)[C@@H]1CC[C@]2(CO)CC[C@]3(C)[C@H](CC[C@@H]4[C@@]5(C)Cc6nnn(Cc7ccc8cc[nH]c8c7)c6C(C)(C)[C@@H]5CC[C@]43C)[C@@H]12
233 µg/mL
C[C@H]1[C@H](C)CC[C@]2(C(=O)O)CC[C@]3(C)C(=CC[C@@H]4[C@@]5(C)Cc6nnn(Cc7cccc8[nH]ccc78)c6C(C)(C)[C@@H]5CC[C@]43C)[C@H]12
23.1 µg/mL
O=C(O)c1cn(C2CC2)c2cc(N3CCNCC3)c(F)cc2c1=O [CIPROFLOXACIN]
3.41 µg/mL
C[C@H]1[C@H](C)CC[C@]2(C(=O)O)CC[C@]3(C)C(=CC[C@@H]4[C@@]5(C)Cc6nnn(Cc7ccc8cc[nH]c8c7)c6C(C)(C)[C@@H]5CC[C@]43C)[C@H]12
60.5 µg/mL
CC1(C)CC[C@]2(C(=O)O)CC[C@]3(C)C(=CC[C@@H]4[C@@]5(C)Cc6nnn(CCc7c[nH]c8ccccc78)c6C(C)(C)[C@@H]5CC[C@]43C)[C@@H]2C1
274 µg/mL

-- ask Request - read-out MIC50 | tested on Staphylococcus aureus | compound "CC1(C)CC[C@]2(C(=O)O)CC[C@]3(C)C(=CC[C@@H]4[C@@]5(C)Cc6nnn(Cc7ccc8[nH]ccc8c7)c6C(C)(C)[C@@H]5CC[C@]43C)[C@@H]2C1"
-- reply 95.5 µg/mL

-- ask Request - read-out MIC50 | tested on Staphylococcus aureus | compound CC1(C)CC[C@]2(C(=O)O)CC[C@]3(C)C(=CC[C@@H]4[C@@]5(C)CC[C@H](O)C(C)(C)[C@@H]5CC[C@]43C)[C@@H]2C1 [OLEANOLIC_ACID]
-- reply 1.16 µg/mL

-- ask Request - read-out MIC50 | tested on Staphylococcus aureus | compound "COc1ccc2[nH]cc(CCn3nnc4c3C(C)(C)[C@@H]3CC[C@]5(C)[C@H](CC=C6[C@@H]7CC(C)(C)CC[C@]7(C(=O)O)CC[C@]65C)[C@@]3(C)C4)c2c1"
-- reply 32.3 µg/mL

-- ask Request - read-out MIC50 | tested on Staphylococcus aureus | compound C=C(C)[C@@H]1CC[C@]2(CO)CC[C@]3(C)[C@H](CC[C@@H]4[C@@]5(C)CC[C@H](O)C(C)(C)[C@@H]5CC[C@]43C)[C@@H]12 [BETULIN]
-- reply 248 µg/mL

-- ask Request - read-out MIC50 | tested on Staphylococcus aureus | compound "CC1(C)CC[C@]2(C(=O)O)CC[C@]3(C)C(=CC[C@@H]4[C@@]5(C)Cc6nnn(Cc7ccc(Cl)cc7)c6C(C)(C)[C@@H]5CC[C@]43C)[C@@H]2C1"
-- reply 180 µg/mL

###

Test system: HCT-116
test: Antiproliferative activity against human HCT-116 cells assessed as inhibition of cell viability measured after 72 hrs by colorimetric MTS viability assay
Format: functional, cell-based
condition_info: HCT-116, 72 h
pIC50: −log10 of the molar value.
readout_label: pIC50

C[C@H]1[C@H](C)CC[C@]2(C(=O)O)CC[C@]3(C)C(=CC[C@@H]4[C@@]5(C)Cc6nnn(Cc7cccc8[nH]ccc78)c6C(C)(C)[C@@H]5CC[C@]43C)[C@H]12
4.81
C[C@H]1[C@H](C)CC[C@]2(C(=O)O)CC[C@]3(C)C(=CC[C@@H]4[C@@]5(C)Cc6nnn(CCc7c[nH]c8ccccc78)c6C(C)(C)[C@@H]5CC[C@]43C)[C@H]12
4.97

[1] COc1ccc2[nH]cc(CCn3nnc4c3C(C)(C)[C@@H]3CC[C@]5(C)[C@H](CC=C6[C@@H]7CC(C)(C)CC[C@]7(C(=O)O)CC[C@]65C)[C@@]3(C)C4)c2c1
[2] CC1(C)CC[C@]2(C(=O)O)CC[C@]3(C)C(=CC[C@@H]4[C@@]5(C)CC[C@H](O)C(C)(C)[C@@H]5CC[C@]43C)[C@@H]2C1 [OLEANOLIC_ACID]
[3] CC1(C)CC[C@]2(C(=O)O)CC[C@]3(C)C(=CC[C@@H]4[C@@]5(C)Cc6nnn(Cc7ccc(Cl)cc7)c6C(C)(C)[C@@H]5CC[C@]43C)[C@@H]2C1
-- ask Hey, quick one: sort these by pIC50, largest value first please. Answer with the labels in sequence, matching the requested order.
-- reply 1, 2, 3
